Provide the reported melting point of each item.

{"compound": "NC(CCNc1ccccc1)=NO", "melting point": "91 to 91.5 °C"}
{"compound": "COc1cc(C(C)C)nn1C", "melting point": "114 to 115 °C"}
{"compound": "CCSc1cnc(Cl)cc1C#N", "melting point": "112 to 114 °C"}

Fill in melting point for each of the 4 compounds listed.
1. NS(=O)(=O)c1ccc(-c2cnn(C3CC=CCC3)c(=O)c2-c2ccc(F)cc2)cc1 (stereo not given)
2. CC(C)(C)[Si](C)(C)OC(CCCNCCc1ccccc1)COc1ccc2c(=O)cc(-c3ccccc3)oc2c1 (stereo not given)
3. CC(C)(C)OC(=O)N1CCN(C(=O)OC(C)(C)C)C(C(O)(Cc2ccccc2)Cc2ccccc2)C1 (stereo not given)
4. CCn1cc(CC(=O)O)c(OCCCc2ccc(Cc3ccccn3)cc2OC(C)C)n1

RESULT:
206 to 208 °C
89 to 91 °C
150 °C
97 to 98 °C

Fill in melting point for each of the 3 compounds listed.
1. CCC(=O)c1ccc2c(c1)OC(c1ccccc1)(c1ccccc1)O2
2. CN1Cc2c(-c3noc(CNC4CC4)n3)ncn2-c2ccc(F)cc2C1=O
3. O=Cc1cccc(-c2ccccn2)n1

RESULT:
["69 to 70.5 °C", "176 to 178 °C", "41 to 43 °C"]

* * *

property-label: melting point

{"compound": "COC(=O)Cc1ccc2c(c1)CCN2C(C)=O", "value-observed": "104 to 105 °C"}
{"compound": "O=C(CCCl)c1ccc2c3c1CCCC3C(=O)N2 (stereo not given)", "value-observed": "175 to 178 °C"}
{"compound": "Cc1cccc(NC(=O)c2cc(C(F)(F)F)nn2-c2ccccc2Cl)c1NC(=O)C(C)C", "value-observed": "215 to 220 °C"}
{"compound": "O=C1c2ccccc2C2(c3ccccc3)NCCCCN12 (stereo not given)", "value-observed": "180 to 181 °C"}

Please turn your attention to the following entry.
QUERY: Read the entry `O=C(CCC1=C(n2nc(-c3c(-c4ccccc4)nn4ccccc34)ccc2=O)CCCC1)OCc1ccccc1` and write its reported melting point.
RESULT: 111 to 113 °C

* * *

property-label: melting point

{"compound": "Cc1cc(C)cc(C(=O)OC2CCCCC2=O)c1 (stereo not given)", "melting point": "65 to 66 °C"}
{"compound": "O=C(N[C@@H](Cc1ccccc1)[C@@H](O)[C@H](O)[C@H](Cc1ccccc1)NC(=O)OCc1cccnc1)OCc1cccnc1", "melting point": "180 to 186 °C"}
{"compound": "C=CC1(C)OC(=O)c2ccc(Oc3ccc(C(F)(F)F)cc3Cl)cc21 (stereo not given)", "melting point": "71 to 73 °C"}

Fill in melting point for each of the 7 compounds listed.
1. COC(=O)c1c(C)nc(C)c(C(=O)OCC2CCCO2)c1-c1cccc(NC(C)=O)c1 (stereo not given)
2. COCON=C(C(=O)C=CN(C)C)C(=O)OC
3. O[C@@H]1CN(Cc2ccccc2)C[C@H]1Oc1ccccc1 (relative stereo)
4. CCc1nn(-c2ccc(F)cc2)c2cc(C3=CCC(C(=O)O)CC3)ccc12 (stereo not given)
5. CCCCCCCCC1OC(=O)c2cc(N)ccc21 (stereo not given)
6. CCOC(=O)Cn1c(=O)c(=O)[nH]c2cc(C(F)(F)F)c(N)cc21
7. CCOCc1c2ccccc2cc2ccccc12

RESULT:
["196 to 198 °C", "99 to 100 °C", "88.5 to 90 °C", "214 to 216 °C", "124 to 125 °C", "> 250 °C", "74 to 75 °C"]

Fill in melting point for each of the 5 compounds listed.
1. Cc1c(C(=O)Cl)ccc(S(C)(=O)=O)c1C1=NOCC1
2. CC(C)c1cc(-c2ccc(F)c3ccccc23)nc(NCCNS(C)(=O)=O)n1
3. COCOc1ccc(-c2ncc3ncc(N4CCNCC4=O)cc3n2)cc1
4. O=C1c2cccc(Br)c2C(=O)N1CCCn1cncn1
5. CN1C(=O)N(c2cc(Cl)cc(Cl)c2)C(=O)[C@]12CN(Cc1cc(C(=O)O)cs1)C[C@H]2c1ccc(C#N)cc1 (relative stereo)

RESULT:
["183 to 184 °C", "85 to 91 °C", "200 to 202 °C", "113 to 115 °C", "188 °C"]

* * *

Provide the reported melting point of each item.

See these solved cases before continuing.
{"compound": "CC(CO)(Sc1cc2cc(O)ccc2[nH]1)c1ccccc1 (stereo unspecified)", "melting point": "143 to 145 °C"}
{"compound": "CCCCCS(=O)(=O)NC(=O)/C=C/c1ccc(OCC(C)=O)cc1Oc1ncc(C(F)(F)F)cc1Cl", "melting point": "187 to 188 °C"}
{"compound": "CC(C)(C)OC(=O)CC(=O)c1ccco1", "melting point": "74 to 75 °C"}
{"compound": "COc1ccc(C(=O)Nc2ccccc2)cc1NC(=S)Nc1ccccc1", "melting point": "174 to 176 °C"}
{"compound": "CNC(=O)NN(CC(=O)OC)c1cccc(OC)c1", "melting point": "145 to 146 °C"}

Please turn your attention to the following entry.
QUERY: Read the entry `COc1ccc(N2C(=O)C(=O)c3cc(OC)ccc32)cc1` and write its reported melting point.
RESULT: 203 to 205 °C

* * *

Provide the reported melting point of each item.

See these solved cases before continuing.
{"compound": "C=Cc1cc2c(c3ccc(O)cc13)OCc1cc(O)ccc1-2", "melting point": "> 220 °C"}
{"compound": "O=C1Cc2ccc3ccccc3c2C(c2ccccc2F)N1 (stereo not given)", "melting point": "265 to 268 °C"}

Fill in melting point for each of the 4 compounds listed.
1. NS(=O)(=O)c1cc2c(cc1Cl)C(=O)N(CCN1CCOCC1)C2=O
2. Nc1sc2c(c1C(=O)c1cc3ccccc3o1)CCC2
3. CCc1c(CC(=O)NCCCCCCNC(=O)Cc2ccc(OC)cc2)ccc(OC)c1OC
4. CCC1(CC(=O)O)OCCc2nc(-c3ccccc3)sc21 (stereo not given)

RESULT:
1. 218 to 219 °C
2. 126 to 129 °C
3. 123 to 125 °C
4. 106 to 108 °C

Fill in melting point for each of the 7 compounds listed.
1. CCOc1cc2ncc(C#N)c(Nc3ccc(F)cc3)c2cc1OCC
2. O=S(=O)(c1ccc(Cl)cc1)C(c1cc(F)ccc1F)c1cc(N2CCCS2(=O)=O)ncc1Cl (stereo not given)
3. CC(C)(CCC(=O)O)N(Cl)Cl
4. CC(=O)Nc1c(CC(=O)O)cccc1C(=O)c1ccccc1
5. COC(OC)C(CNC(=O)c1cc2cc(O)cc([N+](=O)[O-])c2[nH]1)SCc1ccccc1 (stereo not given)
6. CCOC(=O)COc1c(Cl)c(O)c2c(c1Cl)OC1(CCCCC1)CC2=O
7. O=C(C=Cc1cccs1)Nc1nnn[nH]1

RESULT:
1: 177 to 181 °C; 2: 219 to 221 °C; 3: 35 to 38 °C; 4: 188 to 190 °C; 5: 134 to 135 °C; 6: 134 to 135 °C; 7: 287 °C

Fill in melting point for each of the 7 compounds listed.
1. COC(=O)C1(N)C(=O)Nc2ccccc2CC1c1ccccc1 (stereo not given)
2. Cc1nc(-c2ccccc2)nc(-c2ccccn2)n1
3. COc1ccc(C(=O)Nc2ccccc2)cc1NC(=S)Nc1cccc(C#N)c1
4. COc1ccc(-c2ncn(-c3cc(OC)c(OC)c(OC)c3)c2-c2cc(OC)c(OC)c(OC)c2)cc1OC
5. CCc1ccc2c(c1)C=Cc1cc(C)ccc1C2c1cn(-c2ccnc(N3CC(C(=O)Nc4nnn[nH]4)C3)n2)c(=O)[nH]c1=O (stereo not given)
6. C[C@@H](Cc1c2n(c3ccc(OC4CC4)cc13)CCC2)NC(=O)OC(C)(C)C
7. O=C(c1ccccc1SSc1ccccc1C(=O)N1CCC(CO)C1)N1CCC(CO)C1 (stereo not given)

RESULT:
201 °C
97 °C
183 to 185 °C
160 to 161 °C
252 °C
83 to 84 °C
169 to 171 °C

Fill in melting point for each of the 5 compounds listed.
1. O=C(NS(=O)(=O)c1cc(C(F)(F)F)ccc1Cl)c1cn2cc(Br)cnc2n1
2. CSc1nnc(C(N)(c2ccc(Cl)cc2)c2ccc3nc(C)cc(-c4cccc(Cl)c4)c3c2)n1C (stereo not given)
3. Oc1ccc(-c2cc3ccccc3[nH]2)cc1
4. COc1ccc2c(c1N)CN(S(C)(=O)=O)CC(=O)N2
5. CNCc1coc(-c2cccc(C3=Nc4ccc(-n5cccc5)cc4NC(=O)C3)c2)n1

RESULT:
1: > 250 °C; 2: 128 °C; 3: 224 to 229 °C; 4: 232 to 233 °C; 5: 182 to 183 °C

Data origin: a melting point compilation (Tetko et al.; mined from patent text by program, amines drawn as free bases though some values may be those of a salt)
